- TEST: Plasma clearance in male Sprague-Dawley rat at 5 mg/kg, iv
- Assay type: ADME, organism-based
MEASUREMENT_KIND: clearance (mL/min/kg)
All answers are understood in mL/min/kg, so give the number only.

Exam item: Returns the measured clearance for the input compound. Input: N[C@@H](CC(=O)N1CCn2c(nnc2C(F)(F)F)C1)[C@H]1CCc2cc(F)c(F)cc21
Marked response: 37

###

- TEST: Elimination half life in rat liver microsomes
- Format: ADME
- MEASUREMENT_PARAMETERS: read-out: beta t1/2
Each entry below carries its reported half-life.
All answers are understood in h, so give the number only.

Worked examples, 2 compounds total:
[
  {
    "STRUCTURE_AS_SMILES": "N[C@@H](CC(=O)N1CCn2c(nnc2C(F)(F)F)C1)[C@H]1CCc2cc(F)c(F)cc21",
    "RESULT_UNIT": "h",
    "half-life": 5.88
  },
  {
    "STRUCTURE_AS_SMILES": "N[C@@H](CC(=O)N1CC(=O)Nc2ccccc2C1)[C@H]1CCc2cc(F)c(F)cc21",
    "RESULT_UNIT": "h",
    "half-life": 1.4
  }
]

Now consider the entry below.
Exam item: Returns the measured half-life for the input compound. Input: N[C@@H](CC(=O)N1CC(=O)Nc2cc(F)ccc2C1)[C@H]1CCc2cc(F)c(F)cc21
Marked response: 1.85
